experiment: Inhibition of CDK5/p25 (unknown origin); parameters: species or system Homo sapiens
pIC50: −log10 of the molar value.
Measured Endpoint: pIC50

- Compound: "O=C1/C(=C/c2ccc(O)c(O)c2)Oc2cc(O)cc(O)c21 [AUREUSIDIN]"
  Measured Endpoint: "pIC50"
  Observed Measurement: 5.32

----------
molecular target: Nitric oxide synthase, inducible (Mus musculus); experiment: Inhibition of iNOS expression in LPS-induced mouse RAW264.7 cells
Sequence (P29477 whole entry): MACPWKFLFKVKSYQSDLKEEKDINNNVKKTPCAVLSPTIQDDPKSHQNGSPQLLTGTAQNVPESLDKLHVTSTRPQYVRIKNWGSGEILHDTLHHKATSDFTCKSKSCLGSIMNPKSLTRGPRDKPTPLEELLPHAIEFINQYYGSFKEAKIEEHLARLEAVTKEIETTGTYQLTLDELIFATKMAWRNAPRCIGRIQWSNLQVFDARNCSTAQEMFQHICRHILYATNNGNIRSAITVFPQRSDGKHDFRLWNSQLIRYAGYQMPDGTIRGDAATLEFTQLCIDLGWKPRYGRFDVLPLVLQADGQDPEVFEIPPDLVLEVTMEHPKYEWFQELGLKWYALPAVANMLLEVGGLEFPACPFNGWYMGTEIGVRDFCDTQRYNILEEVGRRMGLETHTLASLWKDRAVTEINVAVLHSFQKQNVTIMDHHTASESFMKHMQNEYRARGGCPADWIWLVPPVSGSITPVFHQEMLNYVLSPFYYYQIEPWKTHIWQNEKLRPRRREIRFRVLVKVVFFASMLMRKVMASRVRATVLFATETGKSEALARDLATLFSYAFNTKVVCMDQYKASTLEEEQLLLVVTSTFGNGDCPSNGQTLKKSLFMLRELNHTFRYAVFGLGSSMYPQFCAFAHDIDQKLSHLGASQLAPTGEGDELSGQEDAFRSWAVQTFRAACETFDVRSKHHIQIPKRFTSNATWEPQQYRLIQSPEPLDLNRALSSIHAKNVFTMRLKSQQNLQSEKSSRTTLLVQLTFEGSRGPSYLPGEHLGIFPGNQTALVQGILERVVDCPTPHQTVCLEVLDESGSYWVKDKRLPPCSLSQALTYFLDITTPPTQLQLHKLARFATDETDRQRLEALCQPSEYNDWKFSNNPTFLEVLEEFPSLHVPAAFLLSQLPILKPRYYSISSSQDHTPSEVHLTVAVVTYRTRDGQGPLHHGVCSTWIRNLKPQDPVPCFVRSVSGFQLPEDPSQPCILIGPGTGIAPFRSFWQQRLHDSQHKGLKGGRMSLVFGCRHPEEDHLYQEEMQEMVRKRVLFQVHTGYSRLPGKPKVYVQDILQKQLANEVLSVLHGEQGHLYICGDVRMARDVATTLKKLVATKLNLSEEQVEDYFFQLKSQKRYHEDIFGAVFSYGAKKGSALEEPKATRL
pIC50: −log10 of the molar value.
Reported pIC50 by item:

- Structure Smiles: "CC1(C)CCc2c(ccc3c2O/C(=C\\c2ccccc2)C3=O)O1"
  pIC50: 4.91
- Structure Smiles: "CC1(C)CCc2c(ccc3c2O/C(=C\\c2ccccn2)C3=O)O1"
  pIC50: 5.08
- Structure Smiles: "COc1cc(/C=C2\\Oc3c(ccc4c3CCC(C)(C)O4)C2=O)ccc1O"
  pIC50: 5.28
- Structure Smiles: "Cc1ccc(/C=C2\\Oc3c(ccc4c3CCC(C)(C)O4)C2=O)o1"
  pIC50: 4.92
- Structure Smiles: "CC1(C)CCc2c(ccc3c2O/C(=C\\c2cccc(O)c2)C3=O)O1"
  pIC50: 4.97
- Structure Smiles: "CC1(C)CCc2c(ccc3c2O/C(=C\\c2ccc(O)c(O)c2)C3=O)O1"
  pIC50: 5.09
